System: Hepatovirus A
PROTOCOL NOTES: Inhibition of hepatitis A virus 3C proteinase at 10 uM by microplate assay
Kindly return yes (1) if reported inhibition is no lower than 60%; return no (0) if it is lower.

{"CPD SMILES": "O=C(Oc1cccnc1Cl)c1cccs1", "ANSWER LABEL": "no (0)"}
{"CPD SMILES": "Clc1cncc(OCc2ccco2)c1", "ANSWER LABEL": "no (0)"}
{"CPD SMILES": "O=C(Nc1cccnc1Cl)c1cccs1", "ANSWER LABEL": "no (0)"}
{"CPD SMILES": "O=C(Nc1ccncc1)c1cccs1", "ANSWER LABEL": "no (0)"}
{"CPD SMILES": "O=C(Oc1cncc(Cl)c1)c1cccc2ccccc12", "ANSWER LABEL": "yes (1)"}
{"CPD SMILES": "O=C(Oc1cncc(Cl)c1)c1ccc(Br)o1", "ANSWER LABEL": "yes (1)"}
{"CPD SMILES": "O=C(Oc1cncc(Cl)c1)c1ccc2[nH]ccc2c1", "ANSWER LABEL": "yes (1)"}
{"CPD SMILES": "O=C(Oc1cncc(Cl)c1)c1ccc2ccccc2c1", "ANSWER LABEL": "no (0)"}
{"CPD SMILES": "O=C(Oc1cncc(Cl)c1)c1ccco1", "ANSWER LABEL": "yes (1)"}
{"CPD SMILES": "O=C(Oc1cccc(Cl)c1)c1ccco1", "ANSWER LABEL": "no (0)"}
{"CPD SMILES": "CN(C)c1ccc(C(=O)Oc2cncc(Cl)c2)cc1", "ANSWER LABEL": "yes (1)"}
{"CPD SMILES": "Cc1cccc(C(=O)Oc2cncc(Cl)c2)c1", "ANSWER LABEL": "yes (1)"}
{"CPD SMILES": "O=C(Oc1cncc(Cl)c1)c1c[nH]cn1", "ANSWER LABEL": "no (0)"}
{"CPD SMILES": "CCN(CC)c1ccc(C(=O)Oc2cncc(Cl)c2)cc1", "ANSWER LABEL": "yes (1)"}

====

System: Hepatovirus A
PROTOCOL NOTES: Inhibition of hepatitis A virus 3C proteinase at 1 uM by microplate assay
Kindly return Satisfied if reported inhibition is no lower than 30%; return Not satisfied if it is lower.

{"CPD SMILES": "O=C(Oc1cncc(Cl)c1)c1ccccc1[N+](=O)[O-]", "ANSWER LABEL": "Not satisfied"}
{"CPD SMILES": "O=C(Oc1cncc(Cl)c1)c1cc([N+](=O)[O-])[nH]n1", "ANSWER LABEL": "Satisfied"}
{"CPD SMILES": "O=C(Oc1cncc(Cl)c1)c1ccc(-c2ccccc2)cc1", "ANSWER LABEL": "Not satisfied"}
{"CPD SMILES": "O=C(/C=C/c1ccco1)Oc1cncc(Cl)c1", "ANSWER LABEL": "Satisfied"}
{"CPD SMILES": "O=C(Oc1cncc(Cl)c1)c1ccc2[nH]ccc2c1", "ANSWER LABEL": "Satisfied"}
{"CPD SMILES": "Cc1cccc(C(=O)Oc2cncc(Cl)c2)c1", "ANSWER LABEL": "Satisfied"}
{"CPD SMILES": "Cc1ccc(C(=O)Oc2cncc(Cl)c2)cc1", "ANSWER LABEL": "Satisfied"}
{"CPD SMILES": "O=C(Oc1cncc(Cl)c1)c1ccccc1", "ANSWER LABEL": "Satisfied"}
{"CPD SMILES": "O=C(Oc1cncc(Cl)c1)c1ccc2ncsc2c1", "ANSWER LABEL": "Satisfied"}
{"CPD SMILES": "Cc1ncccc1OC(=O)c1cccs1", "ANSWER LABEL": "Not satisfied"}
{"CPD SMILES": "O=C(Oc1cncc(Cl)c1)c1ccccc1Cl", "ANSWER LABEL": "Satisfied"}
{"CPD SMILES": "O=C(Oc1cncc(Cl)c1)c1ccc[nH]1", "ANSWER LABEL": "Not satisfied"}
{"CPD SMILES": "O=C(/C=C/c1ccccc1)Oc1cncc(Cl)c1", "ANSWER LABEL": "Satisfied"}
{"CPD SMILES": "O=C(Oc1cncc(Cl)c1)c1cc2ccccc2o1", "ANSWER LABEL": "Satisfied"}
{"CPD SMILES": "O=C(Oc1ccccn1)c1cccs1", "ANSWER LABEL": "Not satisfied"}
{"CPD SMILES": "O=C(Oc1cncc(Cl)c1)c1c[nH]cn1", "ANSWER LABEL": "Satisfied"}
{"CPD SMILES": "O=C(Oc1cccnc1)c1cccs1", "ANSWER LABEL": "Not satisfied"}
{"CPD SMILES": "O=C(Oc1cncc(Cl)c1)c1ccc(F)cc1", "ANSWER LABEL": "Satisfied"}
{"CPD SMILES": "O=C(Oc1cncc(Cl)c1)c1cccc(Cl)c1", "ANSWER LABEL": "Satisfied"}
{"CPD SMILES": "O=C(Oc1cncc(Cl)c1)c1cc2ccccc2s1", "ANSWER LABEL": "Satisfied"}
{"CPD SMILES": "COc1ccccc1C(=O)Oc1cncc(Cl)c1", "ANSWER LABEL": "Satisfied"}
{"CPD SMILES": "NS(=O)(=O)c1ccc(C(=O)Oc2cncc(Cl)c2)cc1", "ANSWER LABEL": "Satisfied"}
{"CPD SMILES": "O=C(Oc1cncc(Br)c1)c1ccco1", "ANSWER LABEL": "Satisfied"}
{"CPD SMILES": "O=C(Oc1cncc(Cl)c1)c1ccncc1", "ANSWER LABEL": "Satisfied"}
{"CPD SMILES": "Cc1cccc(OC(=O)c2cccs2)n1", "ANSWER LABEL": "Not satisfied"}
{"CPD SMILES": "O=C(Oc1cncc(Cl)c1)c1cscn1", "ANSWER LABEL": "Satisfied"}
{"CPD SMILES": "O=C(Oc1cncc(Cl)c1)c1ccc2c(c1)OCO2", "ANSWER LABEL": "Not satisfied"}

====

System: Hepatovirus A
PROTOCOL NOTES: Inhibition of hepatitis A virus 3C proteinase at 10 uM by microplate assay
inhibition: recorded values

{"CPD SMILES": "O=S(=O)(Nc1cccnc1)c1cccs1", "inhibition": "< 10%"}
{"CPD SMILES": "O=C(Oc1cncc(Cl)c1)c1ccccc1", "inhibition": "> 90%"}
{"CPD SMILES": "O=C(Oc1cncc(Cl)c1)c1ccc(Cl)cc1O", "inhibition": "> 90%"}
{"CPD SMILES": "O=C(Oc1cncc(Cl)c1)c1ccc(F)cc1", "inhibition": "> 90%"}
{"CPD SMILES": "O=C(Oc1ccco1)c1cccnc1", "inhibition": "> 90%"}
{"CPD SMILES": "O=C(Oc1cncc(Cl)c1)c1ccccc1[N+](=O)[O-]", "inhibition": "> 90%"}
{"CPD SMILES": "O=C(Oc1ccncc1)c1cccs1", "inhibition": "< 10%"}
{"CPD SMILES": "Cc1ccsc1C(=O)Oc1cncc(Cl)c1", "inhibition": "< 10%"}

====

inhibition: recorded values
Test system: Hepatovirus A
PROTOCOL NOTES: Inhibition of hepatitis A virus 3C proteinase at 10 uM by microplate assay

{"CPD SMILES": "Cc1onc(-c2ccccc2)c1C(=O)Oc1cncc(Cl)c1", "inhibition": "< 10%"}
{"CPD SMILES": "O=C(/C=C/c1ccccc1)Oc1cncc(Cl)c1", "inhibition": "> 90%"}
{"CPD SMILES": "COc1cccc(C(=O)Oc2cncc(Cl)c2)c1", "inhibition": "> 90%"}
{"CPD SMILES": "O=C(Nc1ccc(Cl)cn1)c1cccs1", "inhibition": "< 10%"}
{"CPD SMILES": "O=C(Oc1cncc(Cl)c1)c1ccc(-c2ccc(Cl)cc2)o1", "inhibition": "> 90%"}
{"CPD SMILES": "O=C(Oc1cncc(Cl)c1)c1cc2ccccc2o1", "inhibition": "> 90%"}
{"CPD SMILES": "O=C(Oc1cncc(Cl)c1)c1ccc2[nH]nnc2c1", "inhibition": "> 90%"}
{"CPD SMILES": "O=C(Nc1ccc(F)cn1)c1cccs1", "inhibition": "< 10%"}
{"CPD SMILES": "O=C(Oc1cncc(Cl)c1)c1cc2ccccc2s1", "inhibition": "> 90%"}
{"CPD SMILES": "Cc1ncccc1OC(=O)c1cccs1", "inhibition": "< 10%"}
{"CPD SMILES": "O=C(Oc1cncc(Cl)c1)c1cnc2cc(C(F)(F)F)ccc2c1O", "inhibition": "< 10%"}
{"CPD SMILES": "O=C(Oc1cncc(Cl)c1)c1cscn1", "inhibition": "> 90%"}
{"CPD SMILES": "O=C(Nc1ccccn1)c1cccs1", "inhibition": "< 10%"}
{"CPD SMILES": "O=C(Nc1cccnc1)c1cccs1", "inhibition": "< 10%"}
{"CPD SMILES": "Nc1ccc(C(=O)Oc2cncc(Cl)c2)cc1", "inhibition": "> 90%"}
{"CPD SMILES": "O=C(Oc1cncc(Cl)c1)c1ccoc1", "inhibition": "> 90%"}
{"CPD SMILES": "Cc1ccc(C(=O)Oc2cncc(Cl)c2)s1", "inhibition": "> 90%"}
{"CPD SMILES": "O=C(Oc1cncc(Cl)c1)c1ccc(-c2ccccc2C(F)(F)F)o1", "inhibition": "> 90%"}
{"CPD SMILES": "O=C(Oc1cncc(Cl)c1)c1ccc2c(c1)OCO2", "inhibition": "> 90%"}
{"CPD SMILES": "O=C(Oc1cncc(Cl)c1)c1ccccc1Cl", "inhibition": "> 90%"}

Every entry's value here was drawn from ChEMBL document CHEMBL1150252.
